test system: NCI-H23 lung; assay: NCI tumour cell line growth inhibition, 48 h
PROPERTY: TGI (µM)
Numbers only, in µM.

>  <MOLECULE>
COc1ccc2c(c1)C/C(=C\c1cccc3ccccc13)C2=O

>  <UNIT_SYMBOL>
µM

>  <TGI>
24.2

$$$$
>  <MOLECULE>
CCOC(=O)C(CC(C)C)NC(=O)CSc1nnc(COc2ccc(Cl)cc2)n1-c1ccccc1 (stereo not given)

>  <UNIT_SYMBOL>
µM

>  <TGI>
29.5

$$$$
>  <MOLECULE>
CCCCCCCC(CC(=O)NC(CO)C(=O)NC(CO)CC(C)C)OC(=O)CC(CCCCCCC)OC(=O)CC(CCCCCCC)OC1OC(C)C(O)C(OC2OC(C)C(O)C(O)C2OC(C)=O)C1O (stereo not given)

>  <UNIT_SYMBOL>
µM

>  <TGI>
22

$$$$

Prompt: Looking for the measured TGI of Oc1ccc(O)c(-c2cc(-c3ccc(Cl)cc3)nn2-c2ccccc2)c1 , can you help?
Response: 9.24

====

tested on: KM12 colon; test: NCI tumour cell line growth inhibition, 48 h
Field: TGI. Provide a value for each of the molecules that follow.

>  <MOLECULE>
Cc1c(CCO)c(=O)n2c([nH]c3ccccc32)c1C#N

>  <MEASURED_VALUE>
> 100 µM

$$$$
>  <MOLECULE>
O=c1cc(NNc2cccc(F)c2)[nH]c(=O)[nH]1

>  <MEASURED_VALUE>
> 100 µM

$$$$
>  <MOLECULE>
O=C1c2ccccc2C(=O)c2c(O)c(NCCCNCCO)cc(O)c21

>  <MEASURED_VALUE>
21 µM

$$$$
>  <MOLECULE>
CCOC(=O)c1c(-c2ccc(Cl)cc2)c(C#N)c(=S)n(C2OC(COC(C)=O)C(OC(C)=O)C(OC(C)=O)C2OC(C)=O)c1-c1ccccc1 (centres undefined)

>  <MEASURED_VALUE>
> 100 µM

$$$$
>  <MOLECULE>
CC(=O)OC1C(C)OC(OC(=O)C2CCC3C(C2)OC2(CC(OC(=O)/C=C/c4ccccc4)C(C)CO2)C32CO2)C(OC2OC(C)C(O)C(OC(C)=O)C2O)C1O (centres undefined)

>  <MEASURED_VALUE>
< 0.0123 µM

$$$$
>  <MOLECULE>
CC(=O)N1N=C(c2ccc(Nc3ccnc4cc(Cl)ccc34)cc2)CC1c1ccc(Cl)cc1 (centres undefined)

>  <MEASURED_VALUE>
> 100 µM

$$$$

For each listed entry, give its TGI.
1. NC(=O)c1c([N+](=O)[O-])cc(C(F)(F)F)cc1[N+](=O)[O-]
2. Cc1c(-c2ccccc2)nn2cc(-c3ccccc3)nnc12
3. CC(C)(C)c1ccc(OC(=O)Nc2ccc(O)c(C(=O)O)c2)cc1

Response:
1. > 100 µM
2. > 100 µM
3. > 100 µM

====

test system: NCI-H522 lung; experiment: NCI tumour cell line growth inhibition, 48 h
Can you tell me TGI for the items I'm about to list?

Some solved cases for reference:
>  <COMPOUND>
CCC(c1ccc(OC)cc1)C(CC)c1ccc(O)c(CN2CCN(C)CC2)c1 (stereo not given)

>  <TGI>
17 µM

$$$$
>  <COMPOUND>
COc1cc(C2SC(C)C(=O)N2c2ccc(-c3csc(NS(=O)(=O)c4ccc(Cl)c(OC)c4)n3)cc2)ccc1O (stereo not given)

>  <TGI>
47.1 µM

$$$$
>  <COMPOUND>
CSc1cc(-c2ccccn2)nc(-c2ccccn2)c1

>  <TGI>
9.74 µM

$$$$

Give me TGI for each of these compounds, listed below.
1. C=CCN1C(=O)/C(=C/c2ccco2)N=C1SC1OC(COC(C)=O)C(OC(C)=O)C(OC(C)=O)C1OC(C)=O (stereo not given)
2. COC(=O)C(=CNC(N)=O)C(=O)OC

Response:
["51.7 µM", "> 100 µM"]

====

system: DLD-1 colon; experiment: NCI tumour cell line growth inhibition, 48 h
Task for the reader: assign each of the following molecules its reported TGI.

Recorded results for 6 molecules are shown here.
>  <MOLECULE>
O=C(NCCO)c1ccc([N+](=O)[O-])cc1

>  <TGI>
> 100 µM

$$$$
>  <MOLECULE>
S=c1nc(COc2ccc(Cl)cc2Cl)[nH][nH]1

>  <TGI>
> 100 µM

$$$$
>  <MOLECULE>
O=C1C=CC(=C(c2ccc(O)cc2)c2ccc(O)cc2)C=C1

>  <TGI>
23.4 µM

$$$$
>  <MOLECULE>
O=C1c2ccccc2C(=O)c2c(O)c(NCCCNCCO)cc(O)c21

>  <TGI>
19.8 µM

$$$$
>  <MOLECULE>
O=C(CC1(O)C(=O)Nc2ccc(Br)cc21)c1ccc(Cl)cc1Cl (centres undefined)

>  <TGI>
> 100 µM

$$$$
>  <MOLECULE>
O=[N+]([O-])c1ccc(C2CC(c3ccccc3Cl)=Nc3ccccc3S2=O)cc1 (centres undefined)

>  <TGI>
4.1 µM

$$$$

Could you tell me TGI for each of these molecules? They are listed below.
1. CC(=O)NC1C(OCc2ccccc2)OC(CO)C(O)C1OC(C)C(=O)N[C@@H](C)C(=O)N[C@H](CCC(=O)OCCNc1c2ccccc2nc2cccc([N+](=O)[O-])c12)C(N)=O (some centres undefined)
2. O=S(OC12CC3CC(CC(C3)C1)C2)c1cc(Cl)cc(Cl)c1OCc1ccccc1 (centres undefined)
3. O=C(CSc1ncn[nH]1)C[P+](c1ccccc1)(c1ccccc1)c1ccccc1
4. COc1cc(CNc2cnc3cc(N)ccc3n2)cc(OC)c1OC
5. Cc1cccc(C(C)C)c1N1C(=O)C(=O)C(c2nc3ccccc3o2)C(=O)C1=O
6. CCC/C=C1\CCC(CN(C)C)C1=O (centres undefined)
7. CC1(C)O[C@@H](CCl)C[C@H](C#N)O1

Response:
1. 0.0128 µM
2. > 100 µM
3. > 100 µM
4. > 100 µM
5. > 100 µM
6. 5.54 µM
7. > 100 µM

State recorded TGI for all listed molecules.
1. Nc1c(O)cc(N=C2C(=O)C=CC=C2C(=O)O)c(O)c1C(=O)O
2. COC(=O)/C(=N/Nc1cccc(Cl)c1)C(C(=O)C(=O)Nc1cccc(Cl)c1C)c1nc2ccccc2nc1C (centres undefined)
3. Cc1c(CCO)c(=O)n2c([nH]c3ccccc32)c1C#N
4. C=CCc1cc(-c2cc(CC=C)c(O)c(CN(CC)CC)c2)cc(CN(CC)CC)c1O
5. COC(=O)C1=C(c2ccc(OC)c(OC)c2)OC(c2cc(OC)c(OC)c(OC)c2)C1 (centres undefined)
6. COC(=O)CCC1CCc2c(OC)ccc(OC)c2C1=O (centres undefined)

Response:
> 31.6 µM
> 100 µM
> 100 µM
> 100 µM
> 100 µM
> 100 µM

====

system: NCI-H23 lung; assay: NCI tumour cell line growth inhibition, 48 h
Would you mind telling me the reported TGI of each entry?

Here is how some molecules turned out for TGI.
>  <MOLECULE>
O=C1C=CC(=C(c2ccc(O)cc2)c2ccc(O)cc2)C=C1

>  <TGI>
21.2 µM

$$$$
>  <MOLECULE>
COc1cccc(-c2nn(-c3ccccc3)cc2-c2ccnc(NCCNC(=O)Nc3cccc(C(F)(F)F)c3)c2)c1

>  <TGI>
4.15 µM

$$$$
>  <MOLECULE>
COC(=O)C1C=CCON2CCc3c(n(C)c4ccccc34)C12 (stereo not given)

>  <TGI>
> 100 µM

$$$$
>  <MOLECULE>
O=C(CCC(=O)Nc1ccc(Cl)c(Cl)c1)CC(=O)c1ccc(F)cc1

>  <TGI>
> 100 µM

$$$$
>  <MOLECULE>
CCOP(=O)(OCC)C(c1ccccc1)N(C(=O)NC(F)(F)F)c1cccc(F)c1 (stereo not given)

>  <TGI>
> 100 µM

$$$$
>  <MOLECULE>
COc1cc(OC)c2nccc(NCCCN(C)C)c2c1[N+](=O)[O-]

>  <TGI>
> 100 µM

$$$$
>  <MOLECULE>
Cc1cn(CCCCCCC2=NCCCN2)c(=O)[nH]c1=O

>  <TGI>
> 100 µM

$$$$
>  <MOLECULE>
CN(C)c1nnnn1-c1c(N)n(C)c(=O)n(C)c1=O

>  <TGI>
> 100 µM

$$$$

Report TGI for every entry below.
1. C=C1c2nc3ccccc3n2C=C(c2ccc(C)cc2)N1c1ccc(C)cc1
2. Cc1cccc(C(C)C)c1N1C(=O)C(=O)C(c2nc3ccccc3o2)C(=O)C1=O

Response:
["> 100 µM", "> 100 µM"]

====

system: SF-539 CNS; experiment: NCI tumour cell line growth inhibition, 48 h
So I've got a bunch of compounds here, and I need their TGI values.
Give bare numbers, in µM.

Worked examples follow.
>  <COMPOUND>
COc1ccc2c(c1)C/C(=C\c1cccc3ccccc13)C2=O

>  <MEASURED_VALUE>
44.8

$$$$
>  <COMPOUND>
COc1ccc(C(c2ccc(OCCN(C)C)cc2)c2cc3ccccc3c3ccccc23)cc1 (centres undefined)

>  <MEASURED_VALUE>
3.13

$$$$
>  <COMPOUND>
Cc1cc(Nc2nc(-c3cccnc3)nc3ccccc23)n[nH]1

>  <MEASURED_VALUE>
7.99

$$$$

Provide the reported TGI of each entry below, same order.
1. COc1cccc(-c2nn(-c3ccccc3)cc2-c2ccnc(NCCNC(=O)Nc3cccc(C(F)(F)F)c3)c2)c1
2. COc1cccc(-c2ccc3c(c2)C2CCN(Cc4ccccc4)C3C2)c1 (centres undefined)

Response:
1: 3.32; 2: 23

For each of the items listed, what is its TGI?
1. O=C1C=CC(=C(c2ccc(O)cc2)c2ccc(O)cc2)C=C1
2. O=S(=O)(O)c1ccc(N=Nc2nc(C(F)(F)F)c(C(F)(F)F)[nH]2)cc1

Response:
23.6
65.9

Prompt: Item Nc1nc(N)c(C=Nc2ccc(Br)cc2)c(Nc2ccc(Br)cc2)n1 has what recorded TGI?
Response: 24.4
